Entries annotated with measured protein stability index
B1: KLHDC10 (parent)
chain: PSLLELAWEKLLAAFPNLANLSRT

Variants of: B1
Protocol summary: protein stability index of a GFP-peptide fusion (GPS, HEK-293T) (PSI 1-6); higher = more stable;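 note: lentivirally expressed fusions sorted by FACS into six bins by GFP to DsRed ratio, PSI derived from sequencing read proportions per bin multiplied by bin number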
Experimental setup: c terminus: a fixed tail appended

{"columns": ["Mutation name", "protein stability index"],
 "data": [
  ["L6D", 2.2],
  ["L11R", 2.07],
  ["A13E", 1.99],
  ["A19V", 2.3],
  ["N17F", 2.25],
  ["T24Q", 1.56],
  ["P16A", 1.84],
  ["A7M", 2.33],
  ["A13F", 1.46],
  ["A7C", 2.23],
  ["F15P", 2.49]
]}
